system: Rotala indica; test: Pre-emergence herbicidal activity against Rotala indica assessed as bleaching of stem/leaf parts; assay type: functional, organism-based
Activity calls are given as the source filed them. No cut-off for these calls is given here.
recorded-metric: Activity

Below are worked cases with known answers.
line-notation | observed
Cn1cc(C(=O)N2CCCC2)c(Oc2cccc(C(F)(F)F)c2)n1 | Active
Cn1cc(NC(=O)c2ccc(F)cc2F)c(Oc2cccc(C(F)(F)F)c2)n1 | Active
Cn1cc(C(=O)Nc2ccc(F)cc2)c(Oc2cccc(C(F)(F)F)c2)n1 | Active
Cn1cc(C(=O)Nc2ccc(Cl)cc2F)c(Oc2cccc(C(F)(F)F)c2)n1 | Active
Cn1cc(C(=O)Nc2ccc(F)cc2F)c(Oc2cc(C(F)(F)F)ccn2)n1 | Active
Cn1cc(C(=O)Nc2ccccc2Cl)c(Oc2cccc(C(F)(F)F)c2)n1 | Active
Cn1cc(C(=O)Nc2ccc(F)c(F)c2F)c(Oc2cccc(C(F)(F)F)c2)n1 | Active
Cn1cc(NC(=O)c2ccccc2)c(Oc2cccc(C(F)(F)F)c2)n1 | Active
Cn1cc(C(=O)Nc2ccc(C(C)(C)C)cc2)c(Oc2cccc(C(F)(F)F)c2)n1 | Active

Check the records and state Activity for Cn1cc(C(=O)Nc2ccc(F)cc2F)c(Oc2ccc(Cl)c(C(F)(F)F)c2)n1
Active

---

test system: Rotala indica; assay: Pre-emergence herbicidal activity against Rotala indica assessed as bleaching of stem/leaf parts; format: functional, organism-based
Active and inactive are the calls of the source. The calls are words filed in the database; no cut-off is given here.

molecule | Activity
Cn1cc(C(=O)Nc2ccc(F)cc2Cl)c(Oc2cccc(C(F)(F)F)c2)n1 | Active
Cn1cc(C(=O)NC2CC2)c(Oc2cccc(C(F)(F)F)c2)n1 | Active
CC(NC(=O)c1cn(C)nc1Oc1cccc(C(F)(F)F)c1)c1ccccc1 (stereo not drawn) | Active

---

tested on: Elatine triandra; assay: Pre-emergence herbicidal activity against Elatine triandra at 100 g a.i/ha measured after 14 days; format: functional, organism-based
Activity calls are given as the source filed them. The calls are words filed in the database; no cut-off is given here.
Pick one and only one: yes (active), no (inactive)

Worked set:
line-notation | system | assigned-category
CCONC(=O)c1cn(C)nc1OCc1cccc(C(F)(F)F)c1 | Elatine triandra | yes
CCONC(=O)c1cn(C)nc1Oc1cccc(C(F)(F)F)c1 | Elatine triandra | no

Tell me the recorded outcome of this test for Cn1cc(C(=O)Nc2ccc(C(C)(C)C)cc2)c(Oc2cccc(C(F)(F)F)c2)n1 .
no

Tell me the recorded outcome of this test for CCCONC(=O)c1cn(C)nc1Oc1cccc(C(F)(F)F)c1 .
yes

Tell me the recorded outcome of this test for Cn1cc(C(=O)Nc2cccc(S(C)(=O)=O)c2)c(Oc2cccc(C(F)(F)F)c2)n1 .
no

Tell me the recorded outcome of this test for Cn1cc(C(=O)Nc2ccccc2)c(Oc2cccc(C(F)(F)F)c2)n1 .
yes

Tell me the recorded outcome of this test for Cn1cc(C(=O)Nc2ccccc2)c(OCc2cccc(C(F)(F)F)c2)n1 .
yes

Tell me the recorded outcome of this test for COc1ccc(NC(=O)c2cn(C)nc2Oc2cccc(C(F)(F)F)c2)cc1OC .
no

---

system: Cyperus difformis; test: Pre-emergence herbicidal activity against Cyperus difformis at 100 g a.i/ha measured after 14 days; assay type: functional, organism-based
Active and inactive are the calls of the source. No cut-off for these calls is given here.
Pick one and only one: active, inactive

Worked set:
line-notation | assigned-category
COc1ccc(NC(=O)c2cn(C)nc2Oc2cccc(C(F)(F)F)c2)cc1OC | inactive
CCONC(=O)c1cn(C)nc1Oc1cccc(C(F)(F)F)c1 | inactive
Cn1cc(C(=O)Nc2ccccc2)c(OCc2cccc(C(F)(F)F)c2)n1 | inactive
Cn1cc(C(=O)Nc2ccc(C(C)(C)C)cc2)c(Oc2cccc(C(F)(F)F)c2)n1 | inactive
Cn1cc(C(=O)Nc2ccccc2)c(Oc2cccc(C(F)(F)F)c2)n1 | active

Tell me the recorded outcome of this test for Cn1cc(C(=O)Nc2cccc(S(C)(=O)=O)c2)c(Oc2cccc(C(F)(F)F)c2)n1 .
inactive

Tell me the recorded outcome of this test for CCONC(=O)c1cn(C)nc1OCc1cccc(C(F)(F)F)c1 .
active

---

test system: Elatine triandra; test: Pre-emergence herbicidal activity against Elatine triandra at 500 g a.i/ha measured after 14 days; format: functional, organism-based
Active and inactive are the calls of the source. The calls are words filed in the database; no cut-off is given here.
Pick one and only one: class 1 for active, class 0 for inactive

Worked set:
compound | assigned-category
CC(NC(=O)c1cn(C)nc1Oc1cccc(C(F)(F)F)c1)c1ccccc1 (stereo unspecified) | class 0
Cn1cc(C(=O)Nc2ccc(F)cc2F)c(Oc2cc(C(F)(F)F)ccn2)n1 | class 0
CCCN(CC)C(=O)c1cn(C)nc1Oc1cccc(C(F)(F)F)c1 | class 0
Cn1cc(C(=O)NC2CC2)c(Oc2cccc(C(F)(F)F)c2)n1 | class 0
Cn1cc(C(=O)N2CCCC2)c(Oc2cccc(C(F)(F)F)c2)n1 | class 0

Next up:
Tell me the recorded outcome of this test for Cn1cc(NC(=O)c2ccc(F)cc2F)c(OCc2cccc(C(F)(F)F)c2)n1 .
class 1

---

system: Pontederia vaginalis; experiment: Pre-emergence herbicidal activity against Monochoria vaginalis at 500 g a.i/ha measured after 14 days; format: functional, organism-based
Activity calls are given as the source filed them. The calls are words filed in the database; no cut-off is given here.
Pick one and only one: yes (1) = active, no (0) = inactive

compound | assigned-category
Cn1cc(C(=O)N2CCCC2)c(Oc2cccc(C(F)(F)F)c2)n1 | no (0)
Cn1cc(C(=O)Nc2ccc(F)cc2F)c(Oc2cc(C(F)(F)F)ccn2)n1 | no (0)
Cn1cc(NC(=O)c2ccc(F)cc2F)c(OCc2cccc(C(F)(F)F)c2)n1 | yes (1)
CCCN(CC)C(=O)c1cn(C)nc1Oc1cccc(C(F)(F)F)c1 | no (0)
Cn1cc(NC(=O)c2ccc(F)cc2F)c(Oc2cccc(C(F)(F)F)c2)n1 | no (0)

Tell me the recorded outcome of this test for CC(NC(=O)c1cn(C)nc1Oc1cccc(C(F)(F)F)c1)c1ccccc1 (stereo unspecified) .
no (0)

---

tested on: Oryza sativa; experiment: Phytotoxicity against Oryza sativa cv. Koshihikari (rice) at 500 g a.i/ha measured after 14 days; assay type: organism-based; conditions: in vivo, 336 h
recorded-metric: Activity

molecule | Activity
Cn1cc(NC(=O)c2ccccc2)c(Oc2cccc(C(F)(F)F)c2)n1 | Non-toxic
Cn1cc(C(=O)Nc2ccccc2)c(Oc2cccc(C(F)(F)F)c2)n1 | Toxic
CC(NC(=O)c1cn(C)nc1Oc1cccc(C(F)(F)F)c1)c1ccccc1 (stereo not given) | Non-toxic
CCCONC(=O)c1cn(C)nc1Oc1cccc(C(F)(F)F)c1 | Toxic

For every item in the list below, what is its measured Activity?
1. CCCN(CC)C(=O)c1cn(C)nc1Oc1cccc(C(F)(F)F)c1
2. Cn1cc(C(=O)Nc2ccc(F)cc2F)c(Oc2cc(C(F)(F)F)ccn2)n1
3. Cn1cc(NC(=O)c2ccc(F)cc2)c(Oc2cccc(C(F)(F)F)c2)n1
4. Cn1cc(NC(=O)c2ccc(F)cc2F)c(OCc2cccc(C(F)(F)F)c2)n1

1: Non-toxic; 2: Non-toxic; 3: Non-toxic; 4: Non-toxic

For every item in the list below, what is its measured Activity?
1. Cn1cc(NC(=O)c2ccc(F)cc2F)c(Oc2cccc(C(F)(F)F)c2)n1
2. CCONC(=O)c1cn(C)nc1Oc1cccc(C(F)(F)F)c1

1: Non-toxic; 2: Toxic

---

tested on: Cyperus difformis; assay: Post-emergence herbicidal activity against Cyperus difformis assessed as bleaching of stem/leaf parts; format: functional, organism-based; note: test concentration or dose not given here
The source made the active and inactive calls. The rule behind the calls is not given here.
recorded-metric: Activity

Below are worked cases with known answers.
line-notation | Activity
CCn1cc(C(=O)Nc2ccc(F)cc2F)c(Oc2cccc(C(F)(F)F)c2)n1 | Active
O=C(Nc1ccc(F)cc1F)c1cn(CCF)nc1Oc1cccc(C(F)(F)F)c1 | Active
Cn1cc(C(=O)Nc2ccc(F)c(F)c2F)c(Oc2cccc(C(F)(F)F)c2)n1 | Active
Cn1cc(C(=O)Nc2ccc(Cl)cc2F)c(Oc2cccc(C(F)(F)F)c2)n1 | Active
CCCONC(=O)c1cn(C)nc1Oc1cccc(C(F)(F)F)c1 | Active
CCCn1cc(C(=O)Nc2ccc(F)cc2F)c(Oc2cccc(C(F)(F)F)c2)n1 | Active
Cn1cc(C(=O)Nc2ccc(F)cc2F)c(Oc2ccc(Br)c(C(F)(F)F)c2)n1 | Active
Cn1cc(C(=O)Nc2ccc(F)cc2Cl)c(Oc2cccc(C(F)(F)F)c2)n1 | Active
Cn1cc(C(=O)Nc2ccccc2F)c(Oc2cccc(C(F)(F)F)c2)n1 | Active

Now turn to the next molecule.
Check the records and state Activity for Cn1cc(C(=O)Nc2cccc(F)c2F)c(Oc2cccc(C(F)(F)F)c2)n1
Active

---

system: Pontederia vaginalis; experiment: Pre-emergence herbicidal activity against Monochoria vaginalis at 500 g a.i/ha measured after 14 days; format: functional, organism-based
Activity calls are given as the source filed them. No cut-off for these calls is given here.
Pick one and only one: active, inactive

Worked set:
compound | assigned-category
Cn1cc(C(=O)NCC2CCCO2)c(Oc2cccc(C(F)(F)F)c2)n1 (stereo unspecified) | inactive
CCONC(=O)c1cn(C)nc1Oc1cccc(C(F)(F)F)c1 | active
CCCCNC(=O)c1cn(C)nc1Oc1cccc(C(F)(F)F)c1 | inactive
Cn1cc(C(=O)NC2CC2)c(Oc2cccc(C(F)(F)F)c2)n1 | inactive
Cn1cc(NC(=O)c2ccc(F)cc2)c(Oc2cccc(C(F)(F)F)c2)n1 | inactive
CCCONC(=O)c1cn(C)nc1Oc1cccc(C(F)(F)F)c1 | active
Cn1cc(NC(=O)c2ccccc2)c(Oc2cccc(C(F)(F)F)c2)n1 | inactive
Cn1cc(C(=O)NCc2cccc(Cl)c2)c(Oc2cccc(C(F)(F)F)c2)n1 | inactive

Tell me the recorded outcome of this test for Cn1cc(C(=O)Nc2ccccc2)c(Oc2cccc(C(F)(F)F)c2)n1 .
active

Tell me the recorded outcome of this test for CSc1ccc(Oc2nn(C)cc2C(=O)Nc2ccc(F)cc2F)cc1C(F)(F)F .
active

Tell me the recorded outcome of this test for C#CCNC(=O)c1cn(C)nc1Oc1cccc(C(F)(F)F)c1 .
inactive
